# studyTarget: HLA-B*44:03
# assayProcedure: IEDB peptide-MHC binding, purified MHC/competitive/radioactivity; filed as Kd, often an IC50 or EC50 that approximates it; bounds were set here for any values at or beyond the usual limits of such assays
# details: source organism: Dengue virus 1 Singapore/S275/1990
recordedEndpoint: pKd
One number for each entry, as −log10 of the molar value.

Look at this sequence and give its reported pKd. `SEMIIPKIYG`
7.73

---

# studyTarget: HLA-B*57:01
# assayProcedure: IEDB peptide-MHC binding, purified MHC/competitive/fluorescence; filed as Kd, often an IC50 or EC50 that approximates it; bounds were set here for any values at or beyond the usual limits of such assays
# details: source organism: Giardia lamblia ATCC 50803
pKd: −log10 of the molar value.
recordedEndpoint: pKd

Param item = `APDGFYPFK` ; retrieve measured pKd.
≤ 4.70

---

# studyTarget: HLA-A*02:12
# assayProcedure: IEDB peptide-MHC binding, purified MHC/competitive/fluorescence; filed as Kd, often an IC50 or EC50 that approximates it; bounds were set here for any values at or beyond the usual limits of such assays
# details: source organism: Escherichia coli
pKd: −log10 of the molar value.
recordedEndpoint: pKd

Which pKd is reported with HLA-A*02:12 for this entry: `LMQWWSDYV` ?
≥ 10.00

---

# studyTarget: HLA-A*30:01
# assayProcedure: IEDB peptide-MHC binding, purified MHC/direct/fluorescence; filed as Kd, often an IC50 or EC50 that approximates it; bounds were set here for any values at or beyond the usual limits of such assays
# details: source organism: Coxiella burnetii
recordedEndpoint: Kd (µM)
Answers are plain numbers, in µM.

Returns the measured Kd for the input sequence. Input: `VMKRNFIDF`
3.63

---

# studyTarget: HLA-A*24:02
# assayProcedure: IEDB peptide-MHC binding, purified MHC/direct/fluorescence; filed as Kd, often an IC50 or EC50 that approximates it; bounds were set here for any values at or beyond the usual limits of such assays
# details: source organism: Vibrio cholerae
pKd: −log10 of the molar value.
recordedEndpoint: pKd

# get_value(readout='pKd', item= `RVHGATVFK` )
≤ 4.70

---

# studyTarget: HLA-A*26:01
# assayProcedure: IEDB peptide-MHC binding, purified MHC/direct/fluorescence; filed as Kd, often an IC50 or EC50 that approximates it; bounds were set here for any values at or beyond the usual limits of such assays
# details: source organism: West Nile virus
pKd: −log10 of the molar value.
recordedEndpoint: pKd

Find the recorded pKd belonging to `FVLALLAFF` and report it.
≤ 4.70

---

# studyTarget: HLA-B*15:17
# assayProcedure: IEDB peptide-MHC binding, purified MHC/direct/fluorescence; filed as Kd, often an IC50 or EC50 that approximates it; bounds were set here for any values at or beyond the usual limits of such assays
# details: source organism: Orthohantavirus dobravaense
recordedEndpoint: pKd
Give bare numbers, as −log10 of the molar value.

Reported pKd for `QTSSIEGAW` : what is it?
5.24

---

# studyTarget: HLA-A*02:03
# assayProcedure: IEDB peptide-MHC binding, purified MHC/direct/fluorescence; filed as Kd, often an IC50 or EC50 that approximates it; bounds were set here for any values at or beyond the usual limits of such assays
# details: source organism: Giardia lamblia ATCC 50803
Kindly supply the reported Kd values for the records listed here.

1) MHYGYNRAN    ≥ 20 µM

Now look at this one.
Given the sequence `APDGFYPFK` , what is its reported Kd?
≥ 20 µM

---

# studyTarget: HLA-A*02:17
# assayProcedure: IEDB peptide-MHC binding, purified MHC/competitive/radioactivity; filed as Kd, often an IC50 or EC50 that approximates it; bounds were set here for any values at or beyond the usual limits of such assays
# details: source organism: Dengue virus 3 Sri Lanka/1266/2000
recordedEndpoint: Kd (nM)
Answers are plain numbers, in nM.

Fill in the blank: the reported Kd of `CLMMILPAA` is ____.
438

---

# studyTarget: HLA-A*11:01
# assayProcedure: IEDB peptide-MHC binding, purified MHC/direct/fluorescence; filed as Kd, often an IC50 or EC50 that approximates it; bounds were set here for any values at or beyond the usual limits of such assays
# details: source organism: Yellow fever virus
pKd: −log10 of the molar value.
recordedEndpoint: pKd

Recorded pKd of `RSHAAIGAY` , please.
≤ 4.70

---

# studyTarget: HLA-B*15:02
# assayProcedure: IEDB peptide-MHC binding, purified MHC/direct/fluorescence; filed as Kd, often an IC50 or EC50 that approximates it; bounds were set here for any values at or beyond the usual limits of such assays
# details: source organism: Yersinia pestis Antiqua
recordedEndpoint: Kd (nM)
Answers are plain numbers, in nM.

# get_value(readout='Kd', item= `FQLYSDLAH` )
25.9

---

Would you kindly list Kd for each of these sequences?
# studyTarget: HLA-A*30:01
# assayProcedure: IEDB peptide-MHC binding, purified MHC/competitive/radioactivity; filed as Kd, often an IC50 or EC50 that approximates it; bounds were set here for any values at or beyond the usual limits of such assays
# details: source organism: Dengue virus 2 16681-PDK53
One number for each entry, in µM.

1. CTILAVVSVS    9.7

Kindly consider the entry below.
Which Kd value belongs to `KARNALDNL` ?
0.0197

---

Provide the reported pKd of each item.
# studyTarget: HLA-B*40:01
# assayProcedure: IEDB peptide-MHC binding, purified MHC/direct/fluorescence; filed as Kd, often an IC50 or EC50 that approximates it; bounds were set here for any values at or beyond the usual limits of such assays
# details: source organism: Camelpox virus M-96
pKd: −log10 of the molar value.

Fill in pKd for each of the 3 sequences listed.
1. YPAVINSNI
2. DILASIIDY
3. EIKDRILSY

1: ≤ 4.70; 2: ≤ 4.70; 3: ≤ 4.70

---

# studyTarget: HLA-B*15:42
# assayProcedure: IEDB peptide-MHC binding, purified MHC/competitive/fluorescence; filed as Kd, often an IC50 or EC50 that approximates it; bounds were set here for any values at or beyond the usual limits of such assays
# details: source organism: Hepacivirus hominis
pKd: −log10 of the molar value.
recordedEndpoint: pKd

I am curious: what pKd value has been reported for `LLPRRGPRL` ?
≤ 5.30

---

# studyTarget: HLA-B*15:42
# assayProcedure: IEDB peptide-MHC binding, purified MHC/competitive/fluorescence; filed as Kd, often an IC50 or EC50 that approximates it; bounds were set here for any values at or beyond the usual limits of such assays
# details: source organism: Escherichia coli
recordedEndpoint: Kd

Provide the documented Kd with HLA-B*15:42 as the system for `MERFSWHVA`
≥ 5 µM

---

# studyTarget: HLA-B*15:01
# assayProcedure: IEDB peptide-MHC binding, purified MHC/competitive/radioactivity; filed as Kd, often an IC50 or EC50 that approximates it; bounds were set here for any values at or beyond the usual limits of such assays
# details: source organism: Dengue virus 2 Peru/IQT2913/1996
recordedEndpoint: Kd (nM)
Answers are plain numbers, in nM.

# query: Kd | item `TMRHKKATY` | system: HLA-B*15:01
442

---

# studyTarget: HLA-A*03:01
# assayProcedure: IEDB peptide-MHC binding, purified MHC/direct/fluorescence; filed as Kd, often an IC50 or EC50 that approximates it; bounds were set here for any values at or beyond the usual limits of such assays
# details: source organism: Burkholderia mallei ATCC 23344
recordedEndpoint: Kd

Record request: Kd value, item `QHAWPLPPL`
≥ 20 µM

---

# studyTarget: HLA-B*45:01
# assayProcedure: IEDB peptide-MHC binding, purified MHC/competitive/radioactivity; filed as Kd, often an IC50 or EC50 that approximates it; bounds were set here for any values at or beyond the usual limits of such assays
# details: source organism: SARS coronavirus Tor2
pKd: −log10 of the molar value.
Note to self: class = bucket of pKd, per bucket A (below 6), bucket B (6 to below 7), bucket C (7 or more)

1. AEWVLAYMLF    bucket C
2. SDEVARDLSL    bucket B
3. MEAQFLYLY    bucket C
4. FEVLAVEDT    bucket A
5. RELNGGAVT    bucket C
6. EEAIRHVRA    bucket C

Lab note: sort `GESVKTQFNY` into the matching pKd band.
bucket A

Hey, which category is `QELLIQQWI` in, do you know?
bucket B

---

# studyTarget: HLA-A*24:03
# assayProcedure: IEDB peptide-MHC binding, purified MHC/direct/fluorescence; filed as Kd, often an IC50 or EC50 that approximates it; bounds were set here for any values at or beyond the usual limits of such assays
# details: source organism: Vibrio parahaemolyticus
recordedEndpoint: Kd (nM)
Answers are plain numbers, in nM.

I have this sequence here, `AFYLWIVGF` , and I need its recorded Kd.
2100

---

So I've got a bunch of sequences here, and I need their Kd values.
# studyTarget: HLA-B*58:01
# assayProcedure: IEDB peptide-MHC binding, purified MHC/competitive/radioactivity; filed as Kd, often an IC50 or EC50 that approximates it; bounds were set here for any values at or beyond the usual limits of such assays
# details: source organism: Dengue virus 3 Martinique/1243/1999
Field: value (include unit after the number)

1) LATAIAGAW    5.6 nM

Now examine the next entry.
What measured Kd goes with `LTAAVLLLI` ?
11.3 nM

Numbers sourced from the Immune Epitope Database (IEDB).
